system_name: T1, human CD3 (human, UniProt P07766 23-207; P04234 22-171)
T1 construct: As expressed on Jurkat cells or human T cells within the T cell receptor complex; also called hCD3
experiment_summary: FACS titration on Jurkat cells (human CD3)
parameter_measured: pEC50
Field pEC50 (float): negative decimal logarithm of the concentration in molar.

1. BSSTEAP2/CD3-011 (bispecific antibody, V domains shown, also called BSSTEAP2/CD3-0011) VH 1: QVQLVESGGGVVQPGRSLGLSCAASGFTFSSYGMHWVRQAPGKGLEWVAVIWYDGSNKYYVDSVKGRFTISRDNSKNTLYLQMNSLRAEDTAVYYCAREGLRFLENYYYYYGMDVWGQGTTVTVSS VH 2: EVQLVQSGGGLVQPGRSLRLSCAASGFTFADYTMHWVRQTPGKGLEWVSGISWNSGSKDYADSVKGRFTISRDNAKNSLYLQMNSLRTEDTALYYCAKYGSGYGRYFFYAMDVWGQGTTVTVSS VL: EIVLTQSPGTLSLSPGERATLSCRASQSISSTYLAWYQQRPGQAPRLLIYGASSRATGIPDRFSGSGSGTDFTLTISRLEPEDFAVYYCQQYGTSPYTFGQGTKLEIK :: 8.06

// next entry
Given item BSSTEAP2/CD3-009 (bispecific antibody, IgG4, V domains shown) VH 1: QVQLQQSGPGLVKPSQTLSLTCVISGDSVSTNSAAWNWIRQSPSRGLEWLGRTYYRSKWYNDYAVSVRSRITINPVTSKNQVALHLNSVTPEDTAVYYCARAGIVVVPGPETYYYYYHGLDVWGQGTTVTVSS VH 2: QVQLVESGGGLVHPGRSLRLSCAASGFKFDDYTMHWVRQAPGKGLEWVSDISWNSGSKGYADSVKGRFTISRDNAKDSLYLQMDSLRAADTAFYYCAKDKSGYGHFYYYAMDVWGQGTTVTVSS VL: DIQMTQSPSSLSASVGDRVTITCRASQNIRSYLNWYQQKPGKAPKLLIHVASSLQSGVPSRFSGSGSGTDFTLTISSLQPEDFATYYCQQSYSTPPITFGHGTRLEIK , the value recorded as its pEC50 is 8.38

The measured values listed here are drawn from patent US20200376136A1.
